- system.tested: T1, Cynomolgus monkey BCMA (cynomolgus monkey)
- T1 construct: Soluble analyte in SPR; also called cyBCMA; Cyno BCMA
- protocol.text: SPR, IgG immobilised, cyno BCMA analyte
Could you please mark Met for values of Kd below 0.9 nM and Not met for values at or above it?

- A02_Rd4_0.6nM_C13 (antibody, V domains shown, IgG) VH: EVQLLESGGGLVQPGGSLRLSCAASGFTFSSYAMNWVRQAPGKGLEWVSAISDSGGYRYYADSVKGRFTISRDNSKNTLYLQMNSLRAEDTAVYYCARYWPMSLWGQGTLVTVSS VL: EIVLTQSPGTLSLSPGERATLSCRASQSVSSSYWAWYQQKPGQAPRLLMYDASIRATGIPDRFSGSGSGTDFTLTISRLEPEDFAVYYCQQYESWPLTFGQGTKVEIK: Met

Does A02_Rd4_0.6nM_C18 (antibody, V domains shown, IgG) VH: EVQLLESGGGLVQPGGSLRLSCAASGFTFSSYAMNWVRQAPGKGLEWVSAVLDSGGSTYYADSVKGRFTISRDNSKNTLYLQMNSLRAEDTAVYYCARYWPMSLWGQGTLVTVSS VL: EIVLTQSPGTLSLSPGERATLSCRASQSVSELYLAWYQQKPGQAPRLLMYDASIRATGIPDRFSGSGSGTDFTLTISRLEPEDFAVYYCQQYFGWPLTFGQGTKVEIK have Kd strictly under 0.9 nM?
Met

Does C01_Rd4_0.6nM_C27 (antibody, V domains shown, IgG) VH: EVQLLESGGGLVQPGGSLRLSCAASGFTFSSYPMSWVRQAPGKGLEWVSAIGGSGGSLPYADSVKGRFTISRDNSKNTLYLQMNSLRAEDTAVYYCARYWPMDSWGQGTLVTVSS VL: EIVLTQSPGTLSLSPGERATLSCRASQSVSSTYLAWYQQKPGQAPRLLIYDASSRAPGIPDRFSGSGSGTDFTLTISRLEPEDFAVYYCQQYSRWPLTFGQGTKVEIK have Kd strictly under 0.9 nM?
Met

Does C01_Rd4_0.6nM_C09 (antibody, V domains shown, IgG) VH: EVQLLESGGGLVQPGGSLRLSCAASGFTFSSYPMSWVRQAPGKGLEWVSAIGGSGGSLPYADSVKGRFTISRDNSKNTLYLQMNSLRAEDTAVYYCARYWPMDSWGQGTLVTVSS VL: EIVLTQSPGTLSLSPGERATLSCRASQSVSSLFLAWYQQKPGQAPRLLIYDASSRAPGIPDRFSGSGSGTDFTLTISRLEPEDFAVYYCQQYSAWPLTFGQGTKVEIK have Kd strictly under 0.9 nM?
Not met

Does COMBO_Rd4_6nM_C09 (antibody, V domains shown, IgG) VH: EVQLLESGGGLVQPGGSLRLSCAASGFTFSSYPMSWVRQAPGKGLEWVSAIFASGGSTYYADSVKGRFTISRDNSKNTLYLQMNSLRAEDTAVYYCARYWPMDSWGQGTLVTVSS VL: EIVLTQSPGTLSLSPGERATLSCRASQSVSAQYLAWYQQKPGQAPRLLMYDASIRATGIPDRFSGSGSGTDFTLTISRLEPEDFAVYYCQQYQAWPLTFGQGTKVEIK have Kd strictly under 0.9 nM?
Met

Does P5C1_VHVL (antibody, V domains shown, IgG; also called PC1) VH: EVQLLESGGGLVQPGGSLRLSCAASGFTFSSYPMSWVRQAPGKGLEWVSAIGGSGGSTYYADSVKGRFTISRDNSKNTLYLQMNSLRAEDTAVYYCARYWPMDSWGQGTLVTVSS VL: EIVLTQSPGTLSLSPGERATLSCRASQSVSSTYLAWYQQKPGQAPRLLIYDASSRAPGIPDRFSGSGSGTDFTLTISRLEPEDFAVYYCQQYSTSPLTFGQGTKVEIK have Kd strictly under 0.9 nM?
Not met

Does COMBO_Rd4_6nM_C21 (antibody, V domains shown, IgG) VH: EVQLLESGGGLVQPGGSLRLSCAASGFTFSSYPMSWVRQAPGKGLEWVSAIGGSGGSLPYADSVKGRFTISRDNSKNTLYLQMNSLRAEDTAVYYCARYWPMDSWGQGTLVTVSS VL: EIVLTQSPGTLSLSPGERATLSCRASQSVSAAYLAWYQQKPGQAPRLLMYDASIRATGIPDRFSGSGSGTDFTLTISRLEPEDFAVYYCQQYMCWPLTFGQGTKVEIK have Kd strictly under 0.9 nM?
Met

Does C01_Rd4_6nM_C12 (antibody, V domains shown, IgG; also called PC1C12) VH: EVQLLESGGGLVQPGGSLRLSCAASGFTFSSYPMSWVRQAPGKGLEWVSAIGGSGGWSYYADSVKGRFTISRDNSKNTLYLQMNSLRAEDTAVYYCARYWPMDSWGQGTLVTVSS VL: EIVLTQSPGTLSLSPGERATLSCWLSQSVSSTYLAWYQQKPGQAPRLLIYDASSRAPGIPDRFSGSGSGTDFTLTISRLEPEDFAVYYCQQYSEWPLTFGQGTKVEIK have Kd strictly under 0.9 nM?
Met

Does A02_Rd4_6nM_C16 (antibody, V domains shown, IgG; also called P5AC16) VH: EVQLLESGGGLVQPGGSLRLSCAASGFTFSSYAMNWVRQAPGKGLEWVSAISDFGGSTYYADSVKGRFTISRDNSKNTLYLQMNSLRAEDTAVYYCARYWPMDIWGQGTLVTVSS VL: EIVLTQSPGTLSLSPGERATLSCRASQSVSDLYLAWYQQKPGQAPRLLMYDASIRATGIPDRFSGSGSGTDFTLTISRLEPEDFAVYYCQQYQTWPLTFGQGTKVEIK have Kd strictly under 0.9 nM?
Met
